B1: VTI1B (parent)
chain: NKLLLSIIILLELAILGGLVYYKF

Variants of: B1
Experiment: protein stability index of a GFP-peptide fusion (GPS, HEK-293T) (PSI 1-6); higher = more stable;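 also: lentivirally expressed fusions sorted by FACS into six bins by GFP to DsRed ratio, PSI derived from sequencing read proportions per bin multiplied by bin number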
Details: c terminus: a fixed tail appended
VALUE KIND: protein stability index

>  <MUTANT>
L3W

>  <OBSERVED RESULT>
2.79

$$$$
>  <MUTANT>
L10S

>  <OBSERVED RESULT>
4.51

$$$$
>  <MUTANT>
I7V

>  <OBSERVED RESULT>
2.32

$$$$
>  <MUTANT>
I15C

>  <OBSERVED RESULT>
2.38

$$$$
>  <MUTANT>
L3Q

>  <OBSERVED RESULT>
2.99

$$$$
>  <MUTANT>
V20Y

>  <OBSERVED RESULT>
2.87

$$$$
>  <MUTANT>
Y22P

>  <OBSERVED RESULT>
3.8

$$$$
>  <MUTANT>
I7R

>  <OBSERVED RESULT>
3.87

$$$$
>  <MUTANT>
S6C

>  <OBSERVED RESULT>
3.11

$$$$
>  <MUTANT>
L19K

>  <OBSERVED RESULT>
2.67

$$$$
>  <MUTANT>
K23Y

>  <OBSERVED RESULT>
2.52

$$$$
